// provenance: PubChem BioAssay

# ASSAY COMMENT: HUVEC growth inhibition – cell-based, human, primary screen (AID 575);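 note: 100% = median of untreated cell wells with 0.1% DMSO on each plate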
# CONDITION DETAILS: HUVEC proliferation, CellTiter-Glo luminescence, 72 h; at 10 µM; active compounds read low
PROPERTY: viability (%)
One number for each entry, in %.

> print(dat)
                                    compound  units  numeric.value
 1  COc1ccc(S(=O)(=O)N2CCCC2C(=O)Nc2ccc(O)cc2)cc1 (stereo not given)      %           92.6
 2  Cn1c(C(=O)NCC2CCCO2)cc2c(=O)n(C)c3ccccc3c21 (stereo not given)      %           84.8
 3  COCCNC(=O)C(C)N(c1ccc(Oc2ccccc2)cc1)S(C)(=O)=O (stereo not given)      %            102
 4  O=C(c1ccc(NS(=O)(=O)c2cccs2)cc1)N1CCCCC1      %           72.9
 5   CCCc1cc(=O)oc2cc(C)cc(OC(=O)c3ccco3)c12      %           62.2
 6  CCC(C)NC(=O)C1c2cc(OC)c(OC)cc2C(=O)N(C)C1c1ccc(OC)cc1 (stereo not given)      %            108
 7  CCCCOC(=O)c1[nH]c2c(c1C)C(=O)CC(c1cc(OC)c(OC)c(OC)c1)C2 (stereo not given)      %           77.4
 8  O=C(c1cnccn1)N(c1ccccc1)C1(C(=O)NC2CCCC2)CCCCC1      %             96
 9  CC1CCc2nn(CC(=O)NCCN3CCCCC3C)cc2C1 (stereo not given)      %            103
10  Cc1cccc(N2C(=O)CC(N3CCN(c4cccc(C(F)(F)F)c4)CC3)C2=O)c1 (stereo not given)      %           73.2

Please state, for each entry, its recorded viability.
1. CCOCCCNC(=O)Cn1ncc2c(=O)oc3ccccc3c21
2. O=C(CCn1c(=O)oc2ccccc21)NCCN1CCOCC1
3. COC(=O)C1(C(F)(F)F)N=C2Sc3ccccc3N2C(N2CCOCC2)=N1 (stereo not given)
4. Cc1[nH]nc2c1C(=O)CC(C)(C)C2

# output
1. 81.5
2. 93.4
3. 81.5
4. 100

----------
# ASSAY COMMENT: reduced viability of SK-BR-3 breast cancer cells – cell-based, 24 h, human, pilot screen (AID 572);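 note: compound exposure lasted between 18 and 24 h rather than exactly 24 h; 100% = carrier-treated control wells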
# CONDITION DETAILS: SK-BR-3 viability, CellTiter-Glo luminescence, at 10 µM, active compounds read low
PROPERTY: viability (%)
Numbers only, in %.

> print(dat)
                                compound  numeric.value
1  CC(C)Sc1nc2c(c(=O)n1-c1ccc(F)cc1)SCC2            114

Batch request: viability per item, same order as input.
1. CC(C)C(C(=O)Nc1ccc2c(c1)OCCO2)N1C(=O)c2ccccc2C1=O (stereo unspecified)
2. COCCN(CCOC)Cc1c(C)[nH]c2ccccc2c1=O
3. CCOC(=O)c1cc2c(=O)n3ccccc3nc2n(CCCOC)c1=NC(C)=O
4. O=C(c1ccc2nc(N3CCCCC3)sc2c1)N1CCN(c2ccccn2)CC1
5. C=C(C)Cn1c(N2CC(C)CC(C)C2)nc2c1c(=O)[nH]c(=O)n2C (stereo unspecified)
6. Cc1cc(N2CCOCC2)nc2ccc(NC(=O)C3CCC(C)CC3)cc12 (stereo unspecified)
7. Cn1c(C(=O)NCCCN2CCCCCC2)cc2c(=O)n(C)c3ccccc3c21
8. C(/CCc1ccccc1)=N\n1cnnc1

# output
[91, 96.5, 90, 87, 84, 73.5, 80, 105]

Hi team, please reply with viability for each item in this list.
1. CN(C)c1cc(NC(=O)CN2CCOCC2)c2ccccc2n1
2. Cc1cccc(N2CCN(C(=O)Cn3nc(Cc4ccncc4)c4ccccc4c3=O)CC2)c1C

# output
1: 110; 2: 83

----------
# ASSAY COMMENT: HUVEC growth inhibition – cell-based, human, primary screen (AID 575);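 note: 100% = median of untreated cell wells with 0.1% DMSO on each plate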
# CONDITION DETAILS: HUVEC proliferation, CellTiter-Glo luminescence, 72 h; at 10 µM; active compounds read low
PROPERTY: viability (%)
One number for each entry, in %.

> print(dat)
                                   molecule  numeric.value
1  COc1cccc(C(=O)Nc2cc(C)c3c(=O)oc4ccccc4c3n2)c1           57.6

Quick one: give me viability for each item below, same order please.
1. COCCOC(=O)C1=C(C)OC(N)=C(C#N)C1c1ccc2c(c1)OCO2 (stereo not given)
2. COc1ccc(C(=O)CN2C3=NCCCN3c3ccccc32)cc1OC
3. Cc1ccc(NC(=O)c2cc(-c3ccc(C)o3)nc3ccccc23)nc1
4. CN1CCN(c2nc3c(c(=O)[nH]c(=O)n3C)n2CCSc2nc3ccccc3s2)CC1

# output
93.7
81.3
73
98

----------
# ASSAY COMMENT: viability of HCT116 without oncogenic beta-catenin – human colon tumor cells, pilot screen (AID 823);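 note: 0% = wells killed by 20 µM Hyamine and 100% = untreated DMSO cell wells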
# CONDITION DETAILS: HCT116 beta-catenin knockout viability, CellTiter-Glo, 60 h; at 10 µM; active compounds read low
Results filed as inconclusive are left out.
Give viability for every item shown.
One number for each entry, in %.

> print(dat)
                       compound  numeric.value
1  CCOC(=O)Cn1ncc(-c2ccccc2)c1N            100

Fill in viability for each of the 3 compounds listed.
1. CN1CCN(c2cc3c(c4c2[nH]c2ccccc24)C(=O)CC(C)(C)C3)CC1
2. O=C(O)C1C2C=CC3(CN(C/C=C/c4ccccc4)C(=O)C13)O2 (stereo unspecified)
3. COC(=O)c1cn(NC(=O)c2cccnc2)c(=O)c2ccccc12

# output
[1.73, 94, 101]

----------
Field: growth inhibition. Provide a value for each of the compounds that follow.
# ASSAY COMMENT: S. cerevisiae growth inhibition in restrictive medium, OD615, pilot screen, restrictive growth control, yeast lifespan reduction project (AID 706);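 note: modified DeaD lifespan yeast strain shifted to restrictive glucose medium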
# CONDITION DETAILS: OD615, 48 h, at 10 µM, active compounds read high
Give bare numbers, in %.

> print(dat)
                                   compound  units  numeric.value
1  Cn1c(Cn2c(=O)sc3ccccc32)nnc1SCC(=O)Nc1ccccc1      %          -2.15
2              C=CCOc1ccc(/C=C/C(C)=N\O)cc1      %           7.77
3        c1ccc(N2CCN(Cc3cn4cccnc4n3)CC2)cc1      %          -6.25
4  CCOc1cc(C2NC(=O)NC(O)(C(F)(F)F)C2C(=O)c2ccccc2)ccc1OC (stereo not drawn)      %           19.4
5  CC1Cc2ccccc2N1C(=O)CCn1c(=O)sc2ccccc21 (stereo not drawn)      %          -16.9

# return growth inhibition for each item in the list
1. O=C(Nc1cnn(Cc2ccc(Cl)cc2Cl)c1)c1noc2c1CCCC2
2. CCOCC(=O)Nc1nc2c(s1)C(=O)CC(C)(C)C2
3. Cc1cc(C)c(NC(=O)c2ccc(S(=O)(=O)N3CCOCC3)cc2)c(C)c1

# output
-1.65
-21
-8.03

----------
# ASSAY COMMENT: MRP1 drug-resistance reversers in H69AR cells – cell-based, doxorubicin co-treatment, pilot screen (AID 601)
# CONDITION DETAILS: H69AR cells + 2 uM doxorubicin, CellTiter-Glo, 72 h; at 10 µM; active compounds read high
PROPERTY: differential viability (reversal) (%)
One number for each entry, in %.

Please review the entries below; each comes with its answer.
> print(dat)
                                   compound                           property  numeric.value
1  COc1cccc2cc(C(=O)N3CCN(c4ccc(C)cc4C)CC3)c(=O)oc12  differential viability (reversal)           7.98
2       O=C(Cn1cc2c(n1)CCCCC2)N1CCc2ccccc21  differential viability (reversal)          -3.99
3  CC(C)c1ccc(NC(=O)CCNS(=O)(=O)c2cccc3nonc23)cc1  differential viability (reversal)           1.35
4  CC(=O)Nc1ccc(S(=O)(=O)Nc2nc3c(s2)CCCC3)cc1  differential viability (reversal)           11.5
5  Nc1nc2n(n1)C(c1c(F)cccc1Cl)CC(c1ccc(F)cc1)N2 (stereo unspecified)  differential viability (reversal)          -3.43

Hey, can you go through the list below and give me differential viability (reversal) for every item?
1. COc1cccc(C2=NOC(C(=O)N3CCN(c4ccccc4)CC3)C2)c1OC (stereo unspecified)
2. Cc1cccc(C)c1OCc1nnc(SCC(=O)Nc2ccccc2F)o1
3. CC1CCN(C(=O)CSCC(=O)Nc2nc(-c3cccs3)cs2)CC1
4. O=C(Nc1ccc2c(c1)OCO2)c1ccc(CN2CCOCC2)cc1
5. Nc1nc2n(n1)C(c1cccc(Br)c1)CC(c1ccccc1)N2 (stereo unspecified)
6. Cc1[nH]c2ccccc2c(=O)c1CN1CCCCC1

# output
1. -12
2. -7.2
3. 4.54
4. 9.03
5. -9.83
6. -0.56
